assay-name: NCI Yeast Anticancer Drug Screen. Data for the bub3 strain (AID 167)
measurement-parameters: S. cerevisiae bub3 mutant strain, at 50.0 µM, hits give high values
This is part of a sample that, as a whole, favours compounds with a hit. Of some 79,000 tested, about 15% had one in any assay.
Recorded growth inhibition values for a group of compounds are listed next.
API: value field is a number in %; no unit string.

compound | measured-parameter | unit-of-measure | recorded-number
Cc1cc(-c2ccc(NC(=O)c3cccc([N+](=O)[O-])c3)c(C)c2)ccc1NC(=O)c1cccc([N+](=O)[O-])c1 | growth inhibition | % | 0.7

Identify the reported growth inhibition for the following entry. CCCCSc1ccc2n(C)c(-c3ccc(/C=N\NC(=O)c4ccc(C(=O)N/N=C\c5ccc(-c6c[n+]7cc(SCCCC)ccc7n6C)cc5)cc4)cc3)c[n+]2c1
-7.1

Identify the reported growth inhibition for the following entry. CN(C)c1ccc(/C=C(\C#N)C(=O)c2ccccc2)cc1
6.85

Identify the reported growth inhibition for the following entry. COc1ccc(N2C(=O)C3c4[nH]c5ccccc5c4C4CCCCCCC4C3C2=O)cc1 (stereo not given)
11.9

Identify the reported growth inhibition for the following entry. O=C1/C(=C/c2ccc(O)cc2)CCC/C1=C\c1ccc(O)cc1
-7.05

Identify the reported growth inhibition for the following entry. NNc1nnc(NN)c2ccccc12
4.45

Identify the reported growth inhibition for the following entry. CC(C1=CC=C2[C@@H]3CCC4CC(N(C)C)CC[C@]4(C)C3CC[C@]12C)N(C)C=O (stereo not given in full)
4.45

Identify the reported growth inhibition for the following entry. C=C(C)CCC[C@@H](C)C1CCC2(C)[C@@H]3CCC4C(C)(C)[C@@H](O)CC[C@@]45C[C@@]35CC[C@]12C (stereo not given in full)
18

Identify the reported growth inhibition for the following entry. O=c1c2c3c(sc2nc2n1N=CN(c1ccc(F)cc1)C2)CCCC3
-1.05

Identify the reported growth inhibition for the following entry. COc1cc(/C=C/C(=O)O)cc(OC)c1OC
11.2

* * *

assay-name: NCI Yeast Anticancer Drug Screen. Data for the cln2 rad14 strain (AID 165);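 also: 0% = growth equal to vehicle treated cultures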
measurement-parameters: S. cerevisiae cln2 rad14 strain, at 50.0 µM, hits give high values
Compounds without any hit were thinned out: in the full panel of roughly 79,000, 15% have a hit.
Recorded growth inhibition values for a group of molecules are listed next.
API: value field is a number in %; no unit string.

Worked set:
molecule | growth inhibition (%)
CCCCSC(N)=O | 10.7
CCCCc1ccc(Nc2nc(=S)c3[nH]cnc3[nH]2)cc1 | 23.9
CC1CCc2c(ccc3ccccc23)C1 (centres undefined) | -4.55
Cc1ccc(S(=O)(=O)c2ccc(O)c(C)c2)c(O)c1 (tested in a mixture with another compound) | 45.6

Identify the reported growth inhibition for the following entry. C[N+](C)(C)CC(=O)N/N=C(/Cc1nc2c3c(ccc2[nH]c1=O)C(=O)c1ccccc1C3=O)C(=O)Nc1ccc(Cl)c(Cl)c1
18.8

Identify the reported growth inhibition for the following entry. Brc1cnc2nc(Cc3ccccc3)[nH]c2c1
-52.3

Identify the reported growth inhibition for the following entry. COc1ccccc1-c1cc(=O)c2cc(C)cnc2[nH]1
-30.9

Identify the reported growth inhibition for the following entry. O=c1cc(O)cc(CO)o1
1.2

Identify the reported growth inhibition for the following entry. N#Cc1ccc(/C=N\NC(=O)CCSCCC(=O)N/N=C/c2ccc(C#N)cc2)cc1
18.4

Identify the reported growth inhibition for the following entry. COC(=O)C1=C(C(=O)OC)C23CC4CCC2(C(=O)C1O3)C4(C)C (centres undefined)
8.65

Identify the reported growth inhibition for the following entry. O=c1oc2ccc3ccccc3c2c2c1CCCCC2
-22.1

Identify the reported growth inhibition for the following entry. Nc1ccc2c(c1)Oc1c(F)c(F)cc3c(=O)c(C(=O)O)cn-2c13
16.1

Identify the reported growth inhibition for the following entry. O=CC(=O)c1ccc(Cl)cc1
31.1

Identify the reported growth inhibition for the following entry. Cc1ccc(NC(=S)NC(=O)c2ccccc2)cc1
-55.7
